Test system: HCV pseudoparticles (genotype 1a HCV E1 and E2 envelope, H77C isolate)
assay.remarks: HCV pseudoparticle infection assay (luciferase, Huh7 cells)
Assay type: cell-based, HCV genotype 1a (H77C isolate)
condition.notes: Hepatitis C virus, Huh-7, 48 h, HCV pseudoparticle entry into Huh7 cells, luciferase 2 days after infection; class symbol
The following compounds are listed with their measured EC50 values.

| compound | EC50 |
| --- | --- |
| CC1(C)CCNC(=O)c2ccc(cc2)Nc2cc(nc(OCC(F)(F)F)n2)NCc2ccc(cc2)OCCCN1 | 100 to 1000 nM |
| C[C@H]1CNCCCOc2ccc(cc2)CNc2cc(nc(OCC(F)(F)F)n2)Nc2ccc(cc2)C(=O)NC1 | 100 to 1000 nM |
| CC1(C)CNCCCOc2ccc(cc2F)CNc2cc(nc(OCC(F)(F)F)n2)Nc2ccc(cc2)C(=O)NC1 | < 100 nM |
| CC1(C)CNCCCOc2ccc(cc2)CNc2cc(nc(OCC(F)(F)F)n2)Nc2ccc(cn2)C(=O)NC1 | < 100 nM |
| CC1CNCC(C)(C)CNC(=O)c2ccc(nc2)Nc2cc(nc(OCC(F)(F)F)n2)NCc2ccc(cc2)OC1 (stereo not drawn) | < 100 nM |
| CC1(C)CNCCCOc2ccc(c(F)c2)CNc2cc(nc(OCC(F)(F)F)n2)Nc2ccc(cc2)C(=O)NC1 | < 100 nM |
| C[C@@H]1CNCC(C)(C)CNC(=O)c2ccc(nc2)Nc2cc(nc(OCC(F)(F)F)n2)NCc2ccc(cc2)OC1 | < 100 nM |
| O=C1NCCCOCCCCOCCCNc2cc(nc(OCC(F)(F)F)n2)Nc2ccc1cn2 | 100 to 1000 nM |
| C=C1CNCC(C)(C)CNC(=O)c2ccc(nc2)Nc2cc(nc(OCC(F)(F)F)n2)NCc2ccc(cc2)OC1 | < 100 nM |
| CC1(C)CNCCCOc2ccc(cc2)CNc2cc(nc(OCC(F)(F)F)n2)Nc2ccc(cc2)C(=O)NC1 | < 100 nM |
| O=C1NCC2(CC2)CNCCCOc2ccc(cc2)CNc2cc(nc(OCC(F)(F)F)n2)Nc2ccc1cc2 | 100 to 1000 nM |
| C[C@H]1CNCC(C)(C)CNC(=O)c2ccc(nc2)Nc2cc(nc(OCC(F)(F)F)n2)NCc2ccc(cc2)OC1 | < 100 nM |
